Conditions: in acetone, 308.15 K
Assay readout: solubility (mole fraction)

CCOC(=O)Cc1c(C(=O)OCC)sc(N(CC(=O)OCC)CC(=O)OCC)c1C#N :: 0.079

---

Conditions: in toluene, 313.15 K
Assay readout: solubility (mole fraction)

CCOC(=O)Cc1c(C(=O)OCC)sc(N(CC(=O)OCC)CC(=O)OCC)c1C#N :: 0.0647

---

Settings: in n-propanol, 290.65 K
Assay readout: solubility (mole fraction)

CCOC(=O)Cc1c(C(=O)OCC)sc(N(CC(=O)OCC)CC(=O)OCC)c1C#N :: 0.00118

---

Conditions: in n-butanol, 310.65 K
Assay readout: solubility (mole fraction)

CCOC(=O)Cc1c(C(=O)OCC)sc(N(CC(=O)OCC)CC(=O)OCC)c1C#N :: 0.0039

Data provenance: BigSolDB 2.1
